molecular target: Heat shock protein HSP90 (Homo sapiens, UniProt P07900+P08238); test: Inhibition of human HSP90 in HCT116 cells expressing Her2 gene assessed as degradation of Her2 after 4 hrs by luciferase reporter gene assay; assay type: cell-based; conditions: hct-116
Each entry falls in a class defined on IC50; the bands are group 1: < 0.04 µM; group 2: ≥ 0.04 µM and < 0.2 µM; group 3: ≥ 0.2 µM

Textbook exercise: identify the category of the molecule given here, `C[C@@H](O)C(=O)N1CCC(CCn2c(Sc3cc4c(cc3Br)OCCO4)nc3c(N)ncnc32)CC1` , according to its measured value. group 2

# bin label for `Nc1ncnc2c1nc(Sc1cc3c(cc1Br)OCO3)n2CCC1CCN(C(=O)C2CCCC2)CC1` group 3

Category of `CN1CCOc2cc(Sc3nc4c(N)ncnc4n3CCC3CCN(C=O)CC3)c(Br)cc21` , please. group 1

Class (by measured IC50) for `Nc1ncnc2c1nc(Sc1cc3c(cc1Br)C(=O)CC3)n2CCC1CCN(C=O)CC1` group 2

Exercise: read the entry `CC(=O)N1CCC(CCn2c(Sc3cc4c(cc3Br)OCO4)nc3c(N)ncnc32)CC1` and state which class it falls under. group 2

Category of `CN1CCOc2cc(Br)c(Sc3nc4c(N)ncnc4n3CCC3CCN(C=O)CC3)cc21` : group 3

Using the reported IC50, which band applies to `Nc1ncnc2c1nc(Sc1cc3c(cc1Br)CCO3)n2CCC1CCN(C=O)CC1` ? group 1
